Compiled literature IC50, tested on Mast/stem cell growth factor receptor Kit (Homo sapiens, UniProt P10721).

Example entries and their recorded answers appear below.
structureSmilesString	result
COc1cc2c(Oc3ccc(NC(=O)C4(C(=O)Nc5ccc(F)cc5)CC4)cc3)ccnc2cc1OC(=O)N1CCOCC1	< 0.1 µM
COc1ccnc2[nH]cc(C(=O)c3c(F)ccc(NS(=O)(=O)CC(C)C)c3F)c12	≤ 10 µM
CCCS(=O)(=O)Nc1ccc(F)c(C(=O)c2c[nH]c3ncc(-c4cccc(N(C)C)c4)cc23)c1F	≤ 10 µM
CN(C)c1ccc(Nc2cnc3[nH]ccc3c2)cc1	≤ 10 µM
Fc1nc(NCc2cnccc2C(F)(F)F)ccc1Cc1c[nH]c2ncncc12	≤ 10 µM

What IC50 value was documented for this compound, `CC(C)S(=O)(=O)Nc1ccc(F)c(C(=O)c2c[nH]c3ncc(C#N)cc23)c1F` ?
≤ 10 µM

Same again, this time with `CNc1ncnc2[nH]cc(C(=O)c3ccc(NC4CCC(F)(F)CC4)nc3Cl)c12`
> 1 µM

Then this compound: `O=C(O)CCc1cccc(-c2cnc3[nH]cc(C(=O)c4cccc(NS(=O)(=O)C5CCCC5)c4)c3c2)c1`
≤ 10 µM

----------
Below are IC50 values for Mast/stem cell growth factor receptor Kit (Homo sapiens, UniProt P10721) collected from several publications.

Some solved entries appear below for comparison.
compound	measurementType	result
O=C(c1c(F)ccc(NS(=O)(=O)c2csc3ccccc23)c1F)c1c[nH]c2ncc(Cl)cc12	IC50	≤ 10 µM
NC(=O)c1cccc(-c2cnc3[nH]cc(Cc4ccccc4O)c3c2)c1	IC50	≤ 10 µM
CNC(=O)c1cc2n(c1)CCc1c(NC(=O)c3ccc(N4CCN(C)CC4)cc3)n[nH]c1-2	IC50	2.61 µM

State the recorded IC50 for this entry: `O=C(c1ccc(O)cc1Cl)c1c[nH]c2ncccc12`
≤ 10 µM

Similarly, CC1CN(c2cncnc2)Cc2cc(C(=O)Nc3cc(CN(C)C)cc(C(F)(F)F)c3)ccc21 (stereo not drawn) ?
> 10 µM

Subsequent entry: `Clc1ccc(Cc2c[nH]c3nccc(-c4ccsc4)c23)cn1`
≤ 10 µM

How about this compound: `Cc1ccc(NC(=O)OCc2cccc(-c3cccnc3)c2)cc1C`
0.05 to 0.5 µM

Then `CCCS(=O)(=O)Nc1ccc(F)c(C(=O)c2c[nH]c3ncc(-c4cnn(CC(C)C)c4)cc23)c1F` ?
≤ 10 µM

Now consider `O=C(c1cc(NS(=O)(=O)C2CCCCC2)ccc1F)c1c[nH]c2ncccc12` and answer again.
≤ 10 µM

----------
Mast/stem cell growth factor receptor Kit (Homo sapiens, UniProt P10721) IC50, compiled from various sources.

Some solved entries appear below for comparison.
compound	assayedSystem	IC50
CC(=O)Nc1cccc(-c2cnc3[nH]cc(C(=O)c4cccc(O)c4F)c3c2)c1	Mast/stem cell growth factor receptor Kit (Homo sapiens, UniProt P10721)	≤ 10 µM
CCCC(C)S(=O)(=O)Nc1ccc(F)c(C(=O)c2c[nH]c3ncc(Cl)cc23)c1F (stereo not shown)	Mast/stem cell growth factor receptor Kit (Homo sapiens, UniProt P10721)	≤ 10 µM
CCOc1ncnc2[nH]cc(Cc3ccc(Nc4ccc(C)nc4)nc3F)c12	Mast/stem cell growth factor receptor Kit (Homo sapiens, UniProt P10721)	< 0.1 µM

Now look at this entry.
Which IC50 reading was recorded for the compound `CCCCS(=O)(=O)Nc1ccc(F)c(C(=O)c2c[nH]c3ncccc23)c1` ?
≤ 10 µM
